Compiled record: log10 Ki values for Histamine H3 receptor (Cavia porcellus) across several sources.
Please be aware that the numbers have been log10-transformed from Ki in nM.

Noted log10 Ki for Clc1ccc2c(c1)CCc1cccnc1C2CCNCCCCc1c[nH]cn1 (centres unmarked) , tested on Histamine H3 receptor (Cavia porcellus): 0.88

Noted log10 Ki for O=C(CCN1CCC(Cc2cnc[nH]2)CC1)Nc1cccc(Cl)c1 , tested on Histamine H3 receptor (Cavia porcellus): -0.70

Noted log10 Ki for O=C(CC(c1ccc(Cl)cc1)c1ccccn1)N1CCN(CCCCc2c[nH]cn2)CC1 (centres unmarked) , tested on Histamine H3 receptor (Cavia porcellus): 1.51

Noted log10 Ki for Nc1cc(CN2CCC(C(=O)N3CCC(n4c(-c5ccccn5)nc5cc(F)c(F)cc54)CC3)CC2)ccn1 , tested on Histamine H3 receptor (Cavia porcellus): 0.00

Noted log10 Ki for Clc1ccc2c(c1)CCc1cccnc1C2C1CCN(CCCCc2c[nH]cn2)CC1 (centres unmarked) , tested on Histamine H3 receptor (Cavia porcellus): 1.62
